# tgt: T1, iASPP (1-240)-GST (human, UniProt Q8WUF5 1-240)
# T1 construct: Expressed in bacteria, purified on glutathione beads; also called N-terminal iASPP; not shown: GST tag from pGEX vector (BamHI/EcoRI cloning)
# T1 sequence: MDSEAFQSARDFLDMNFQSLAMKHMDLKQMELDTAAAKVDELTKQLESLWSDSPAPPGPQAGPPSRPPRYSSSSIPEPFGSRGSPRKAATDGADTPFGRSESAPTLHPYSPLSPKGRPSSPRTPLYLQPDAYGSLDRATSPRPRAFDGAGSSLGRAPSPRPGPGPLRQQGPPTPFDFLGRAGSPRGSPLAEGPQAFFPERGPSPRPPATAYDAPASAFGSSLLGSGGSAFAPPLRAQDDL
# protocol_details: in vitro translated iASPP(625-828)-V5 mutant pulled down with iASPP(1-240)-GST glutathione beads
metric: binding result

- binder: "iASPP(625-828)/T722A/N813A (other, In vitro translated; not shown: V5 tag) LNPLVLLLDAALTGELEVVQQAVKEMNDPSQPNEEGITALHNAICGANYSIVDFLITAGANVNSPDSHGWTPLHCAASCNDTVICMALVQHGAAIFAATLSDGATAFEKCDPYREGYADCATYLADVEQSMGLMNSGAVYALWDYSAEFGDELSFREGESVTVLRRDGPEETDWWWAALHGQEGYVPRAYFGLFPRVKPQRSKV"
  metric: "binding result"
  value: "binds"
- binder: "iASPP(625-828)/Y814A (other, In vitro translated; not shown: V5 tag) LNPLVLLLDAALTGELEVVQQAVKEMNDPSQPNEEGITALHNAICGANYSIVDFLITAGANVNSPDSHGWTPLHCAASCNDTVICMALVQHGAAIFATTLSDGATAFEKCDPYREGYADCATYLADVEQSMGLMNSGAVYALWDYSAEFGDELSFREGESVTVLRRDGPEETDWWWAALHGQEGYVPRNAFGLFPRVKPQRSKV"
  metric: "binding result"
  value: "binds"
- binder: "iASPP(625-828)/L724A (other, In vitro translated; not shown: V5 tag) LNPLVLLLDAALTGELEVVQQAVKEMNDPSQPNEEGITALHNAICGANYSIVDFLITAGANVNSPDSHGWTPLHCAASCNDTVICMALVQHGAAIFATTASDGATAFEKCDPYREGYADCATYLADVEQSMGLMNSGAVYALWDYSAEFGDELSFREGESVTVLRRDGPEETDWWWAALHGQEGYVPRNYFGLFPRVKPQRSKV"
  metric: "binding result"
  value: "binds"
